System: soybean
Assay: Test B pre/postemergence soybean
Type: in vivo, Glycine max
Conditions: Preemergence, Rate 500 g/ha; scale 0 (no effect) to 10 (complete control)
Experimental: […] At the same time, these crop and weed species were also treated with postemergence applications of test chemicals formulated in the same manner. […] Treated plants and controls were maintained in a greenhouse for twelve to sixteen days, after which all species were compared to controls and visually evaluated. […]
Parameter measured: Soybean plant response rating

>>> readout_value("Cc1ccccc1-n1c(=O)on(C(=O)N(c2ccc(Cl)cc2)C(C)C)c1=O")
0
>>> readout_value("CC(C)N(C(=O)n1oc(=O)n(-c2cc(Cl)cc(Cl)c2)c1=O)C1=CCOCC1")
0
>>> readout_value("CCc1ccccc1-n1c(=O)on(C(=O)N(c2ccc(F)cc2F)C(C)C)c1=O")
3
>>> readout_value("CC(C)Oc1cc(-n2c(=O)on(C(=O)N(c3ccc(F)cc3)C(C)C)c2=O)c(Cl)cc1Cl")
0

---

# key: entry, value: Plant response rating, Bedstraw
system: bedstraw; test: Test B pre/postemergence bedstraw; assay type: in vivo, Galium aparine; conditions: Preemergence, Rate 250 g/ha; scale of 0 to 10 where 0 is no effect and 10 is complete control
Parameter measured: Plant response rating, Bedstraw

>>> readout_value("CCCn1c(=O)on(C(=O)N(c2ccc(Cl)cc2)C(C)C)c1=O [Compound 119]")
2
>>> readout_value("Cc1ccccc1-n1c(=O)on(C(=O)N(c2ccc(Cl)cc2)C(C)C)c1=O [Compound 41]")
0
>>> readout_value("CCn1c(=O)on(C(=O)N(c2ccc(Cl)cc2)C(C)C)c1=O [Compound 108]")
8
>>> readout_value("CC(C)Oc1cc(-n2c(=O)on(C(=O)N(c3ccc(F)cc3)C(C)C)c2=O)c(Cl)cc1Cl [Compound 43]")
0
>>> readout_value("CCN(C(=O)n1oc(=O)n(-c2c(C)cc(C)cc2C)c1=O)C1CCCCC1 [Compound 63]")
0

---

tested on: blackgrass; assay: Test B pre/postemergence blackgrass; type: in vivo, Alopecurus myosuroides; settings: Preemergence, Rate 62 g/ha; scale of 0 to 10 where 0 is no effect and 10 is complete control
Parameter measured: Blackgrass plant response rating

>>> readout_value("Cc1ccccc1-n1c(=O)on(C(=O)N(c2ccc(F)cc2)C(C)C2CC2)c1=O (stereo not drawn) [Compound 240]")
0
>>> readout_value("CC(C)C(C)n1c(=O)on(C(=O)N(c2ccc(F)cc2)C(C)C)c1=O (stereo not drawn) [Compound 316]")
8
>>> readout_value("CC(C)N(C(=O)n1oc(=O)n(C(C)C2CCC2)c1=O)c1ccc(Cl)cc1 (stereo not drawn) [Compound 701]")
0

---

# key: entry, value: Plant response rating, Wild oats
tested on: wild oat; assay: Test B pre/postemergence wild oat; type: in vivo, Avena fatua; conditions: Rate 500 g/ha, Postemergence; scale 0 to 10, 0 no effect, 10 complete control
Parameter measured: Plant response rating, Wild oats

>>> readout_value("CC(C)N(C(=O)n1oc(=O)n(C2CCC2)c1=O)c1ccccc1 [Compound 348]")
7
>>> readout_value("CC(C)N(C(=O)n1oc(=O)n(C2CCCCCC2)c1=O)c1ccc(Cl)cc1 [Compound 339]")
0
>>> readout_value("Cc1c(-n2c(=O)on(C(=O)N(c3ccc(F)cc3F)C(C)C)c2=O)ccc2ccccc12 [Compound 337]")
0
>>> readout_value("Cc1c(-n2c(=O)on(C(=O)N(c3ccc(F)cc3)C(C)C)c2=O)ccc2ccccc12 [Compound 338]")
0
